Item-by-item account of Kd
Biological target: T1, GFP-9S library array, motif 4 ND N98G;D124W (synthetic construct, N98G;D124W)
T1 chain: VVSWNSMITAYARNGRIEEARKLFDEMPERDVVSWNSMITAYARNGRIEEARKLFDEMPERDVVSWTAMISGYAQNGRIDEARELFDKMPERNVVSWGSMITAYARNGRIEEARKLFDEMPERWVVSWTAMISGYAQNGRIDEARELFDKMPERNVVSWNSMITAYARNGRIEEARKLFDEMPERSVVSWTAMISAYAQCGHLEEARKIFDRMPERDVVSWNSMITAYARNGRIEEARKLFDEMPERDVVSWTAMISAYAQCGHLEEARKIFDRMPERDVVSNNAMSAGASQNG
Experiment: high-throughput RNA pulldown from lysate on Ni-NTA beads; HRP: 50 mM Tris pH 8, 150 mM NaCl, 1 mM beta-mercaptoethanol, 50 ug/ml BSA, 3 ug/ml yeast RNA, 0.5% heparin; ITC and FP: Tris pH 8, 200 mM KCl, 5% glycerol; MST: 50 mM Tris pH 8, 200 mM NaCl, 1 mM DTT, BSA, heparin, 0.05% Tween 20
Details: tags: N-terminal His-eGFP; label: 5' Cy5

| binder | unit.descriptor | Kd |
| --- | --- | --- |
| AUUAGACGUGA (ssRNA) [Cy5-rpoA-G] | nM | 69.1 |
| AUUACACGUGA (ssRNA) [Cy5-rpoA] | nM | 49.7 |

Measured values drawn from paper PMC8809517 for this set.
